Assay: qHTS Assay for Lipid Storage Modulators in Drosophila S3 Cells;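 also: cells counted by Cell Tracker Red CMTPX staining in the red channel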
Settings: BODIPY lipid droplet fluorescence, 18-24 h, cells fed with added oleic acid; measured here: cell count max response
Excerpt: NIH Molecular Libraries Probe Production Centers Network [MLPCN] NIH Chemical Genomics Center [NCGC] […] Triacsin C (Sigma-Aldrich T-4540), an inhibitor of long-chain fatty acyl CoA synthetase that blocks synthesis of triglycerides, was used as a positive control for lipid under-storage. […] Fluorescence was detected by excitation of the fluorophores with a 488-nm laser on an Acumen Explorer (TTP Lab Tech). […] Cells were detected using channel 3 (575-640 nm) with 5-um width and 100-um depth filters. […]
Hit rate of the full screen: of about 320,000 compounds, about 2,100 (0.66%) were called active. Inconclusive results (about 53%) are left out. The list comes from a sample in which actives are over-represented; it also holds close analogues and randomly drawn compounds.
OBSERVED_PROPERTY: cell number change
Put down the number, then write its unit next to it.

Ask: Item under review: CCOc1ccc(C(C(=O)NCC2CCCO2)N(Cc2cccnc2)C(=O)c2snc(C(N)=O)c2N)cc1 (centres undefined) . Reported cell number change?
Result: -2.82%

Ask: Item under review: O=C(Nc1nc2c(F)cc(F)cc2s1)c1ccc2c(c1)OCCO2 . Reported cell number change?
Result: 6.09%

Ask: Item under review: CC(=O)Nc1nc(-c2cccs2)cs1 . Reported cell number change?
Result: -17%

Ask: Item under review: CS(=O)(=O)NCCCCNc1ccc(C(F)(F)F)cc1[N+](=O)[O-] . Reported cell number change?
Result: 4.42%

Ask: Item under review: COc1ccc(Nc2c3c(nc4ccc(C)cc24)CCC3)cc1 . Reported cell number change?
Result: 0.901%

Ask: Item under review: Fc1ccc(-c2csc(-c3ccncc3)n2)cc1 . Reported cell number change?
Result: 8.89%

Ask: Item under review: Cc1c(N)cccc1-c1nc2ccccc2[nH]1 . Reported cell number change?
Result: -2.56%

Ask: Item under review: O=C(Nc1nc(-c2cccs2)cs1)c1ccc([N+](=O)[O-])o1 . Reported cell number change?
Result: -9.47%

Ask: Item under review: CS(=O)(=O)c1ccccc1C(=O)Nc1cccc(-c2nc3ccccc3o2)c1 . Reported cell number change?
Result: -20.6%

Ask: Item under review: O=C1C(=O)N(CCCN2CCOCC2)C(c2ccc(F)cc2)/C1=C(\O)c1ccc2c(c1)OCCO2 (centres undefined) . Reported cell number change?
Result: -2.36%

Ask: Item under review: O=C(Nc1ccccc1NC(=O)c1ccco1)c1ccco1 . Reported cell number change?
Result: -11%

Ask: Item under review: O=C(CCN1C(=O)[C@@H]2Cc3ccccc3CN2C1=O)N[C@H](C(=O)O)c1ccccc1 . Reported cell number change?
Result: 8.94%

Ask: Item under review: Cc1csc(NC(=O)CSc2nc(C(C)C)nc3ccccc23)n1 . Reported cell number change?
Result: 6.52%

Ask: Item under review: CCn1c(SC)nnc1-c1sc2cc(Cl)ccc2c1Cl . Reported cell number change?
Result: -4.88%

Ask: Item under review: COc1ccc(/C=C2/SC(=S)N(CCC(=O)O)C2=O)cc1 . Reported cell number change?
Result: -16.6%

Ask: Item under review: O=C(Nc1nc2c(F)cc(F)cc2s1)c1ccc([N+](=O)[O-])o1 . Reported cell number change?
Result: -16.4%

Ask: Item under review: O=C(Nc1nc2c(Cl)cccc2s1)c1ccc([N+](=O)[O-])o1 . Reported cell number change?
Result: -16.1%

Ask: Item under review: CC(C)C12CN3CC(C(C)C)(CN(C1)C3(C)C)C2=O . Reported cell number change?
Result: 8.23%

Ask: Item under review: CC(C)(C)c1ccc(C(=O)NCc2ccccc2)cc1 . Reported cell number change?
Result: -10.5%

Ask: Item under review: Cc1ccc(S(N)(=O)=O)c(C)c1-n1cnnn1 . Reported cell number change?
Result: 3.24%

Ask: Item under review: CCOC(=O)COc1ccc(S(=O)(=O)N2CCN(C(=O)OCC)CC2)cc1 . Reported cell number change?
Result: -5.47%

Ask: Item under review: CCOC(=O)CN1C(=O)C(O)(c2c(C)[nH]c3ccccc23)c2ccccc21 (centres undefined) . Reported cell number change?
Result: 8.53%

Ask: Item under review: CSc1nnc(-c2sc3cc(Cl)ccc3c2Cl)n1C . Reported cell number change?
Result: -10.5%

Ask: Item under review: CN(C(=O)c1cccc(NC(=O)c2ccco2)c1)c1ccccc1 . Reported cell number change?
Result: 8.03%

Ask: Item under review: CN(C(=O)c1ccc(NC(=O)c2ccco2)cc1)c1ccccc1 . Reported cell number change?
Result: 5.45%

Ask: Item under review: CSc1nnc(-c2ccccc2)n1C . Reported cell number change?
Result: -0.435%

Ask: Item under review: Oc1ccc(-c2nc(-c3ccc(O)c(O)c3)cs2)cc1 . Reported cell number change?
Result: -11.8%

Ask: Item under review: Oc1ccc(-c2csc(-c3cccnc3)n2)cc1O . Reported cell number change?
Result: -16.9%

Ask: Item under review: Cc1csc(NC(=O)CSc2nc3ccccc3c3c2CCCC3)n1 . Reported cell number change?
Result: 1.26%

Ask: Item under review: CCOc1ccc(C(C(=O)NCC2CCCO2)N(Cc2cccs2)C(=O)c2snc(C(N)=O)c2N)cc1 (centres undefined) . Reported cell number change?
Result: 15%

Ask: Item under review: Cc1ccc(NC(=O)c2ccco2)c(NC(=O)c2ccccc2)c1 . Reported cell number change?
Result: 11.5%

Ask: Item under review: CS(=O)(=O)NCCCNc1ccc(C(F)(F)F)cc1[N+](=O)[O-] . Reported cell number change?
Result: 2.05%

Ask: Item under review: CC(C)(C)c1ccc(C(=O)CCC(=O)NCc2ccccc2)cc1 . Reported cell number change?
Result: 6.25%

Ask: Item under review: CCOC(=O)N1CCN(C2=C(NS(=O)(=O)c3ccc(NC(C)=O)cc3)C(=O)c3ccccc3C2=O)CC1 . Reported cell number change?
Result: -22.6%
